# assayed system: T1, recombinant endoglin (BIAcore analyte, Example 2) (UniProt P17813 26-586, limits assumed)
# T1 sequence (looked up): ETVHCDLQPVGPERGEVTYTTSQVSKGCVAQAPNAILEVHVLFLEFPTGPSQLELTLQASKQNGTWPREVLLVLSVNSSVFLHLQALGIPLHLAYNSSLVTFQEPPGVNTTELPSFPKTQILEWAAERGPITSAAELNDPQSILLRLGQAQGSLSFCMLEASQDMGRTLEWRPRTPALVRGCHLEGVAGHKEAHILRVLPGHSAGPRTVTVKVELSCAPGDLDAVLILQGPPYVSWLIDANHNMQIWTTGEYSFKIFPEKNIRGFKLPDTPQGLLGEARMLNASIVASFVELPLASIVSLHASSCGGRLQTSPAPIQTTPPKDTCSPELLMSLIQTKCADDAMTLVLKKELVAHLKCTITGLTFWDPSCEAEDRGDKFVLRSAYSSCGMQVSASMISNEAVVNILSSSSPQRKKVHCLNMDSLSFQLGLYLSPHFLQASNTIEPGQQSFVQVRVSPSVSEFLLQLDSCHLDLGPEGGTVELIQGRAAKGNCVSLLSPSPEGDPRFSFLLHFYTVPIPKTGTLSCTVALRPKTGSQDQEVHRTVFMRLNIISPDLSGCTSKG
# assay procedure: SPR (BIAcore), antibody captured on protein A, recombinant endoglin as analyte

binder: chimeric anti-endoglin antibody (TRC105) (antibody, V domains shown, also called chimeric anti-CD105; c-SN6j) VH: EVKLEESGGGLVQPGGSMKLSCAASGFTFSDAWMDWVRQSPEKGLEWVAEIRSKASNHATYYAESVKGRFTISRDDSKSSVYLQMNSLRAEDTGIYYCTRWRRFFDSWGQGTTLTVSS VL: QIVLSQSPAILSASPGEKVTMTCRASSSVSYMHWYQQKPGSSPKPWIYATSNLASGVPVRFSGSGSGTSYSLTISRVEAEDAATYYCQQWSSNPLTFGAGTKLELK
koff / s⁻¹: 3.28e-05
